These measurements were taken from patent US20230278984A1.

Listed next: entries and their corresponding Emax.
# targetOrTestSystem: Human pyruvate kinase R (PKR) (Homo sapiens)
# Construct: Human pyruvate kinase R (PKR), residues 14-574; 6x-His (N, cleaved yes); 8x-Arg (N, cleaved yes); SUMO (N, cleaved yes); host or cells: E. coli
# Sequence (P30613 14-574): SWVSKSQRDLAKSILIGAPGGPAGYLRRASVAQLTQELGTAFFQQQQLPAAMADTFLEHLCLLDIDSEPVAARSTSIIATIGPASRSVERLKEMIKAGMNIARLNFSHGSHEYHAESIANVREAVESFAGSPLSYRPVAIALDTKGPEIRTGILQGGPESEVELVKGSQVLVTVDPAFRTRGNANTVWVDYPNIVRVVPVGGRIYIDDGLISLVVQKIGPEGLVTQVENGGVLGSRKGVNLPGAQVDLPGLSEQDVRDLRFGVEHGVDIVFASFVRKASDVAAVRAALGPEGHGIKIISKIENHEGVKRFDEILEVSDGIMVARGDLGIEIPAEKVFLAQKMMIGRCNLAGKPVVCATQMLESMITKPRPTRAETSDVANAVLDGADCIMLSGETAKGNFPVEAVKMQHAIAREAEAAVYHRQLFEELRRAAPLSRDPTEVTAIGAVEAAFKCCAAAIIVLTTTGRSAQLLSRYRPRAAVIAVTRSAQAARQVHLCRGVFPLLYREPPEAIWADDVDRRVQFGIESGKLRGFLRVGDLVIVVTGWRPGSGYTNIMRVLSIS
# testMethodNotes: Biochemical assay for activation of pyruvate kinase R (Kinase-Glo luminescence measurement of ATP generation)
# testSettings: maximal activation level relative to the activation level achieved by the literature compound AG-348 @ 10 μM
Number only, in %; omit the unit.

Use these answered entries as a reference point.
chemicalStructure: CC(C)c1nc(CNC(=O)NCc2ncnn2-c2ccc3cccnc3c2)n(-c2ccc(Cl)c(F)c2)n1
Emax (%): 74
//
chemicalStructure: Cc1nc(CNC(=O)N(C)Cc2ncnn2-c2ccc3scnc3c2)n(-c2ccc(Cl)c(F)c2)n1
Emax (%): 83
//
chemicalStructure: Cc1nc(CNC(=O)NCc2ncnn2-c2ccc3cncnc3c2)n(-c2ccc(Cl)c(F)c2)n1
Emax (%): 68

Then this molecule:
Entry Cc1nc(CNC(=O)NCc2ncnn2-c2cc(F)c3ncccc3c2)n(-c2ccc(Cl)c(F)c2)n1 has what Emax?
71
